biological target: T1, Mota Fab; test: SPR (Biacore 2000); koff/kon; scaffold coupled to chip, Motavizumab as analyte
T1 construct: also called Motavizumab Fab; Fab portion of Motavizumab
Kd values, listed per item
measure.name: Kd (pM)

binder="FFL_002 (designed binder, Purified on Ni++ resin; no tag is stated for this construct) GSLSDVRKDVEKRIDKALEAFKNKMDKEKAAFRKDPPSEERRKDKKKEFREEREQVRKAIRNVLSEALSKINDLPITNDKKKLVSNDVIKKVAEMKKKVELEVADVEKKVTQGSW" unit_of_measurement=pM data_value=470
binder="FFL_001 (designed binder, monomeric) GSRSDMRKDAERRFDKFVEAAKNKFDKFKAALRKGDIKEERRKDMKKLARKEAEQARRAVRNRLSELLSKINDMPITNDQKKLMSNDVLKFAAEAEKKIEALAADAEDKFTQGSW" unit_of_measurement=pM data_value=30
binder="FFL_004 (designed binder, Purified on Ni++ resin; no tag is stated for this construct) GSMSDARKDLEERLDKLLEAAKNKMDKFKAAMRKRGQREERKKDWAKIVRDEFEQFRKAVRNFLSEALSKINDYPITNDDKKLTSNDTKKFAAEVEKKLEAFKADVEEAATQ" unit_of_measurement=pM data_value=795
binder="FFL_007 (designed binder) GSLSDIRKDAERRFDKLVEAVKNKLDKMKAALRKEGQQEERMKDLMKFMRKEVEQLRKAMRNFLSEALSKINDMPITNDDKKLISNDLKKYDAIAEKKLEAMKADVERMATQGSWLEHHHHHH" unit_of_measurement=pM data_value=94.1
binder="FFL_005 (designed binder) GSMSDIRKDLEERFDKLVEALKNKVDKMKAAFRKDQFHEERMKDWFKDLRKEVEQMRRAVRNYASEALSKINDLPITNDDKKLASNDVLKLVAEVWKKLEAILADVEAWFTQLEHHHHHH" unit_of_measurement=pM data_value=70.3
binder="FFL_006 (designed binder, Purified on Ni++ resin; no tag is stated for this construct) GSFSDIRKDAEDRADKAFEAAKNKFDKIKAAIRKDWPSEERAKDLMKKARYEMEQARRAIRNIESEALSKINDLPITNDQKKLASNDIIKEMARLFKKLEALMADIEILVTQ" unit_of_measurement=pM data_value=652
